Below, each of the molecules is paired with its reported growth value.
Tested on: SK-MEL-5 melanoma
PROCEDURE TEXT: NCI-60 one-dose screen, 48 h (100 = growth as untreated, 0 = no growth, -100 = all killed)
PROTOCOL CONDITIONS: 10 µM unless noted
The panel holds about 83,000 compounds, 20% with a hit somewhere; the sample as a whole holds those more often.
# value in %; strip the unit string

Take a look at these entries with their results.
COc1ccc(/C=C\c2cc(OC)c(OC)c(OC)c2)c(NS(=O)(=O)c2ccc(Cl)cc2)c1O ... -1.82
N#Cc1c(Br)n(C2OC(CO)C(O)C2O)c2ncnc(N)c12 (stereo not given) ... 95.9
COC(=O)[C@@H](C)C[C@H](Cc1ccccc1)NC(=O)c1cccc([C@@H](C[C@H](C(C)C)N(C)C(=O)[C@@H](NC(=O)[C@H]2CCCCN2C)C(C)C)OC(C)=O)n1 ... -50.6
C[C@@H]1O[C@@H](O[C@H]2C[C@@H](O)[C@]3(CO)C4C(CC[C@]3(O)C2)[C@@]2(O)CC[C@H](C3=CC(=O)OC3)[C@@]2(C)C[C@H]4O)[C@H](O)[C@H](O)[C@H]1O (stereo not given in full) ... -95.5

Q: Given CN1CC(=O)N(O)C1(C)c1cccnc1 (stereo not given) , respond with its growth.
A: 101

----------
Test system: SW-620 colon
PROCEDURE TEXT: NCI-60 one-dose screen, 48 h
PROTOCOL CONDITIONS: 10 µM unless noted
The panel holds about 83,000 compounds, 20% with a hit somewhere; the sample as a whole holds those more often. Active and inactive are the calls of the source. The calls were made as follows: active = growth percent below 10; inactive = the rest.
Reply using exactly one outcome from YES (active), NO (inactive)

Examples from the recorded data:
OCCCCCNC1CCCCC1 ... NO
COP(=S)(N1CC1)N1CC1 ... NO
CCC(CC)CC1(C)CC2(C)CCOC2OO1 (centres undefined) ... NO
ClCCN(CCCl)c1ccc(OCc2ccccc2)cc1 ... NO

Q: How was `C/C(=C\c1ccn(-c2ccccc2N)n1)[C@@H]1C[C@@H]2O[C@]2(C)CCC[C@H](C)[C@H](O)[C@@H](C)C(=O)C(C)(C)[C@@H](O)CC(=O)O1` classified in this test?
A: NO

Q: Outcome logged for COC1OC(CO)C(O)C(O)[CH]1[Hg][O]C(C)=O (centres undefined) in this assay:
A: NO

Q: Just curious, what result did `Cc1cc(NC(=O)NCc2ccc(N3C(N)=NC(N)=NC3(C)C)cc2)ccc1S(=O)(=O)F` get here?
A: NO

Q: State the result this test recorded for `Brc1ccc2c(c1)c(-c1nc(-c3c[nH]c4ncccc34)cs1)cn2CCN1CCOCC1` .
A: NO

Q: Test call, this molecule: `Clc1cccc(N2COOC3(OOC2)C2CC4CC(C2)CC3C4)c1`
A: NO

Q: Which outcome was entered for the molecule `O=Cc1cn(Cc2ccc(Cl)cc2)c2ccccc12` in this test?
A: NO

Q: I would be grateful if you could indicate the recorded call for `Cc1c(C)c([N+](=O)[O-])c(C)c(C)c1[N+](=O)[O-]` .
A: NO

Q: Give the logged outcome of this assay for the following molecule: CCC1CN1CCCCN1CC1CC (centres undefined)
A: NO

Q: State the result this test recorded for `CC1(C)[C@H](O)[C@H](F)C[C@@]2(C)Oc3ccc(C(=O)Nc4ccc5c(c4)NC(=O)C54CCN(CCCCC#N)CC4)cc3C[C@H]12` .
A: YES

Q: What did this assay record as the result for CCCCNC(c1ccc(Cl)cc1)C(O)c1ccc(Cl)cc1 (centres undefined) ?
A: YES

----------
Tested on: EKVX NSCLC
PROCEDURE TEXT: NCI-60 one-dose screen, 48 h
PROTOCOL CONDITIONS: 10 µM unless noted
The panel holds about 83,000 compounds, 20% with a hit somewhere; the sample as a whole holds those more often. Activity calls are given as the source filed them. How the source made its calls: active means growth percent below 10; inactive means the rest.
Log the outcome using a class from active, inactive

C=CCCCCCCCCC(=O)[O-].C=CCCCCCCCCC(=O)[O-].[Zn+2] ... inactive
CN1CC(CNC(=O)OCc2ccccc2)CC2c3cccc4c3c(cn4C)CC21 (stereo unspecified) ... inactive
CNC(=O)Oc1cccc(C(F)(F)F)c1 ... inactive

Q: How did this test come out for N#Cc1c(Br)n(C2OC(CO)C(O)C2O)c2ncnc(N)c12 (stereo unspecified) ?
A: inactive

Q: For CC(CC1CCCCC1)NCc1ccccc1 (stereo unspecified) , what call appears in the results of this test?
A: inactive

Q: GET /call?item= `CC(C)[C@@H]1NC(=O)[C@]2(C)CSC(=N2)c2csc(n2)CNC(=O)C[C@@H](/C=C/CCS)OC1=O` returns the recorded outcome of this test.
A: inactive

Q: What outcome does the record of this test show for `Cc1ccccc1NC(=NCCCN1CC1)Nc1ccccc1C` ?
A: inactive

----------
Tested on: NCI-H522 lung
PROCEDURE TEXT: NCI-60 one-dose screen, 48 h
PROTOCOL CONDITIONS: 10 µM unless noted
Method: Growth inhibition of the NCI-H522 human Non-Small Cell Lung tumor cell line is measured as a screen for anti-cancer activity. Cells are grown in 96 well plates and exposed to the test compound for 48 hours. Compounds are tested at a single concentration, which is 10^-5 M for most compounds. The reported endpoint is percent growth (GI% or GIPRCNT), where numbers from 0 - 100% represent growth inhibition, and numbers from -100% - 0 represent cell death. […]
Compounds without any hit were thinned out: in the full panel of roughly 83,000, 20% have a hit. Calls of active or inactive are those of the source. The calls were made as follows: active = growth percent below 10; inactive = the rest.
Returns: one label drawn from T (active), F (inactive)

NC(=O)c1c(Br)n(C2OC(CO)C(O)C2O)c2ncnc(N)c12 (stereo not given) ... T
NC(=Nc1ccccc1)N[N+](=O)[O-] ... F

Q: What classification did O=C1C=C2C(=CCOC2O)O1 (stereo not given) end up with in this test?
A: T

Q: // param item: `COC(=O)[C@@H](C)C[C@H](Cc1ccc(F)cc1)NC(=O)c1csc([C@@H](C[C@H](C(C)C)N(C)C(=O)[C@@H](NC(=O)[C@H]2CCCCN2C)C(C)C)OC(C)=O)n1` ; yields the recorded call
A: T

Q: For `Oc1c(CCl)cc(Cl)cc1CCl` , what call appears in the results of this test?
A: F

----------
System: SNB-75 CNS
PROCEDURE TEXT: NCI-60 one-dose screen, 48 h (100 = growth as untreated, 0 = no growth, -100 = all killed)
PROTOCOL CONDITIONS: 10 µM unless noted
This is part of a sample that, as a whole, favours compounds with a hit. Of some 83,000 tested, about 20% had one in any assay.
METRIC NAME: growth (%)
Enter your answer as a number in %; do not include the unit.

O=C1N[C@@H]2[C@@H](O)[C@@H](O)[C@H](O)C[C@H]2c2cc3c(c(O)c21)OCO3 ... -25.3
CC(C)(NC(=O)O[C@@H]1CN2CCC1CC2)c1csc(-c2ccc(F)cc2)n1 ... 67.2
CC[C@H](C)[C@H](NC(=O)C12C3C4C1C1C2C3C41NC)C(=O)N(C)[C@H](C[C@@H](OC(C)=O)c1nc(C(=O)N[C@@H](Cc2ccccc2)C[C@H](C)C(=O)OC)cs1)C(C)C (stereo partly specified) ... 31.4
CC1=C2[C@@H](CC1)[C@]1(C)O[C@@](C(C)C)(C[C@H]1O)[C@H]2OC(=O)C1CC1c1ccccc1 (stereo partly specified) ... 88

Q: Answer with reported growth of `C[C@]12CCc3sc(-c4ccccc4O)nc3C1=CC[C@@H]1[C@@H]2CC[C@]2(C)C(=O)CC[C@@H]12`
A: 95.5

Q: Give growth for the following molecule: `Nc1c(F)cc(-c2nc3cc(F)ccc3[se]2)cc1F`
A: 92.2

Q: Kindly indicate its recorded growth. Item: O=[N+]([O-])c1ccc(OP(=O)(CCl)N(CCCl)CCCl)cc1 (stereo unspecified)
A: 77.7

Q: Give the measured growth for `COC(=O)[C@@H](C)C[C@H](Cc1ccc(F)cc1)NC(=O)c1csc([C@@H](C[C@H](C(C)C)N(C)C(=O)[C@@H](NC(=O)[C@H]2CCCCN2C)C(C)C)OC(C)=O)n1`
A: 63.8

Q: Name the recorded growth of the molecule listed here: `CC[C@H](C)[C@H](NC(=O)C12CC(NC(C)=O)(C1)C2)C(=O)N(C)[C@H](C[C@@H](OC(C)=O)c1nc(C(=O)N[C@@H](Cc2ccccc2)C[C@H](C)C(=O)OC)cs1)C(C)C`
A: 44.8

Q: Hello, please tell me recorded growth for this one: `Cc1ccc(S(=O)(=O)C(Cl)(Cl)Cl)cc1`
A: 81.5

Q: For the molecule CN1CC(=O)N(O)C1(C)c1cccnc1 (stereo unspecified) , report growth.
A: 88.5

Q: Quick one: give measured growth for `COc1ccc(/C=C/c2cc(OC)c(OC)c(OC)c2)cc1NC(=O)/C=C/c1ccc(F)cc1`
A: 3.26

Q: Recall and state the measured growth for `CC(C)=CCc1c(O)c(C(=O)CC(C)C)c(O)c2c(-c3ccccc3)cc(=O)oc12` .
A: 81.3

Q: Identify measured growth associated with `CC(C)=CCC[C@H](C(=O)O)[C@@H]1CC[C@]2(C)C3=C(CC[C@@]12C)[C@@]1(C)CC[C@H](O)C(C)(C)[C@@H]1CC3`
A: 90.1

Q: State its growth for this molecule: `CCOP(=O)(Nc1ccc2c(c1)/C(=N/NC(N)=S)c1ccccc1-2)OCC`
A: 80.6

Q: Indicate its recorded growth; the molecule in question is COc1ccc(C2=CC(c3ccc(OC)c(OC)c3)c3c(c4ccccc4oc3=O)O2)cc1OC (stereo unspecified)
A: -4.06
